OBSERVABLE: melting point

MOLECULE: O=C1c2ccccc2CS(=O)(=O)N1CCC(c1ccccc1)N1CCOCC1 (stereo not given)
melting point: 130 °C

Quick request: melting point for each listed item, please.
1. COC(=O)N(Oc1cc(Cl)cc(Cl)c1)C(=O)N(C)C(C)C
2. CCC12CCC3C4=C(CC(OC)=CC4)C(C)CC3C1CCC2=O (stereo not given)
3. CN(CCSCc1n[nH]c(CSCCN(C)C(N)=S)n1)C(N)=S
4. Cn1c(-c2ccc(-n3cnc4ccccc43)cc2)cnc1[C@H](Cc1ccccn1)N(C=O)c1cc2ccccc2[nH]1

a:
["67 to 69 °C", "118 to 125 °C", "133 to 135 °C", "233 to 237 °C"]

----------
Record form. Attribute: melting point. Fill in for each entry.

QUERY_SMILES: CCc1noc(-c2cn(-c3cc(Cl)ccc3OCc3ccccc3)cn2)n1
ENDPOINT_RESULT: 100 to 102 °C

Quick request: melting point for each listed item, please.
1. CCNc1c(C(=O)OCC)c(=O)n(CC)c2nc(C)ccc12
2. CC(=O)NCCCc1ccc(Cl)c2c1CCO2
3. C#CCn1ncc(-c2ccc(S(C)(=O)=O)cc2)c(-c2ccc(F)cc2)c1=O

a:
["133 to 136 °C", "76 to 78 °C", "196 to 198 °C"]

q: Give melting point for O=C(Nc1ccccc1)Oc1ccc(N=C=S)cc1
a: 139 to 142 °C

----------
OBSERVABLE: melting point

Observe how each entry below is paired with its result.
COMPOUND: O=C(Nc1nc(Cl)c(C(=O)NCc2ccccc2)s1)c1ccccc1
ENDPOINT_RESULT: 247 to 249 °C

COMPOUND: O=C(NC(CS)Cc1ccccc1)NC(CS)Cc1ccccc1 (stereo not given)
ENDPOINT_RESULT: 136 to 138 °C

COMPOUND: CNC1=Nc2sc(Cl)cc2C(c2ccccc2)=NC1
ENDPOINT_RESULT: 247 to 250 °C

COMPOUND: CN(C)CCc1[nH]c2ccccc2c1CSc1ccccc1
ENDPOINT_RESULT: 97 to 99 °C

Quick request: melting point for each listed item, please.
1. O=C(CSc1ccccc1)c1ccc2[nH]c3nc(Cl)ccc3c2c1
2. Cc1ccnc(N2C(=S)SCC2(C)O)c1 (stereo not given)
3. CC(C)(C)C(NC(=O)c1ccc(Cl)cc1F)NC(=NC#N)Nc1cccnc1 (stereo not given)
4. Cc1cc(S(=O)(=O)C[N+](=O)[O-])c(C)cc1Cl

a:
1. 256 °C
2. 119 °C
3. 183 to 184 °C
4. 113 to 114 °C

Quick request: melting point for each listed item, please.
1. CCc1cc2ccccc2c(CNC(=O)c2cc(OC)c(OC)c(OC)c2)n1
2. O=C(Nc1cccc(-c2ccnc3c(C(=O)c4cccs4)cnn23)c1)c1ccccn1

a:
175 to 176 °C
198 to 200 °C

----------
OBSERVABLE: melting point

Observe how each entry below is paired with its result.
COMPOUND: CC(=O)C(C(C)=O)C(=O)Nc1ccccc1
melting point: 119 to 121 °C
--
COMPOUND: COC(=O)c1nc(Cl)c(Cl)c(Cl)c1N
melting point: 151 to 152 °C
--
COMPOUND: CNC(=S)NS(=O)(=O)C(F)(F)F
melting point: 88 to 90 °C

Quick request: melting point for each listed item, please.
1. OC(Cn1ncc2c(Br)ncnc21)c1ccccc1 (stereo unspecified)
2. COc1ccc(OC)c(-c2c(O)c3ccc(Cl)cc3[nH]c2=O)c1
3. Cc1cc(OC2SCC(O)C(O)C2O)c(-c2ccnn2-c2ccccc2)cc1Cl (stereo unspecified)

a:
1: 146 to 147 °C; 2: 280 to 282 °C; 3: 95 to 99 °C

The measurements presented in this section are drawn from a melting point compilation (Tetko et al.; mined from patent text by program, amines drawn as free bases though some values may be those of a salt).
